Target Or Test System: Broad substrate specificity ATP-binding cassette transporter ABCG2 (Homo sapiens)
Sequence (Q9UNQ0 whole entry): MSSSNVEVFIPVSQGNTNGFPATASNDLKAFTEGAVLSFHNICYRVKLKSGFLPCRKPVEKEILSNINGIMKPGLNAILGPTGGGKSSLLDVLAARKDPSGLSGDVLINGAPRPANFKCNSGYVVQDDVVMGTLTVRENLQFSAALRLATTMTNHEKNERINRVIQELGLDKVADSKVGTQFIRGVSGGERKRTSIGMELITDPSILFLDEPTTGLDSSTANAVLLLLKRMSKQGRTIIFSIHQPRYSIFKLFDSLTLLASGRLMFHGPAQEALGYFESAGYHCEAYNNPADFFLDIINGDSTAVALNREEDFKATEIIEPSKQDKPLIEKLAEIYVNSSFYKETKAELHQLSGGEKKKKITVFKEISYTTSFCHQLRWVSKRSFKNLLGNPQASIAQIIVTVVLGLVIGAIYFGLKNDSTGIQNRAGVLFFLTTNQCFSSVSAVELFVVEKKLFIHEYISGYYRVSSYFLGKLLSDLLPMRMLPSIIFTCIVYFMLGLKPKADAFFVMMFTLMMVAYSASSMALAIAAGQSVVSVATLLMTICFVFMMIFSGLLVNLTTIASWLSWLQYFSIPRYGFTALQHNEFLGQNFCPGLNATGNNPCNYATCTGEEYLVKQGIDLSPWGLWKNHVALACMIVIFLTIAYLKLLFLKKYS
Assay Explanation: TP_TRANSPORTER: inhibition of topotecan uptake in BCRP-expressing K562 cells
Assay type: functional, cell-based
Readout Type: Activity

CC/C(=C(/c1ccc(OCCN(C)C)cc1)c1ccc(OCc2ccccc2)cc1)c1ccccc1
inhibitor []
CC/C(=C(/CC)c1ccc(O)cc1)c1ccc(O)cc1
inhibitor []
CCC(=O)Oc1ccc(/C(CC)=C(\CC)c2ccc(OC(=O)CC)cc2)cc1 [DIETHYLSTILBESTROL DIPROPIONATE]
inhibitor []
CC/C(=C(/c1ccc(OCCN(C)C)cc1)c1ccc(OCc2ccc([N+](=O)[O-])cc2)cc1)c1ccccc1
inhibitor []
CC/C(=C(\c1ccc(O)cc1)c1ccc(OCCN(C)C)cc1)c1ccc(C(C)C)cc1
inhibitor []
CC/C(=C(\c1ccc(O)cc1)c1ccc(OCCN(C)C)cc1)c1ccc(OC)cc1
inhibitor []
CC/C(=C(\c1ccc(O)cc1)c1ccc(OCCNC)cc1)c1ccc(C(C)CO)cc1 (centres undefined)
inhibitor []
C[C@]12CC[C@@H]3c4ccc(O)cc4CC[C@H]3[C@@H]1CCC2=O
inhibitor []

// moving on: another record for Activity
// Activity value for CC/C(=C(\c1ccc(O)cc1)c1ccc(OCCN(C)C)cc1)c1ccc(OCc2ccccc2)cc1 : inhibitor []
